Source of measurements: paper PMC3409642

study.system: UGT1A9 (Homo sapiens)
procedure.text: Kinetic profiling of glucuronidation by expressed human UGT1A9
condition.context: log of experimental CLint (μl/mg/min)
Hi there, I'd appreciate the recorded Log (CLint) (Actual) for every entry that follows.
Answer as a number with no unit attached.

Asked: I am curious: what Log (CLint) (Actual) value has been reported for COc1cc2c(=O)c(-c3ccc(O)cc3)coc2cc1O ?
Given back: 2.44

Asked: I am curious: what Log (CLint) (Actual) value has been reported for O=c1c(O)c(-c2ccc(O)cc2O)oc2cc(O)cc(O)c12 ?
Given back: 1.77

Asked: I am curious: what Log (CLint) (Actual) value has been reported for O=c1ccoc2cc(O)ccc12 [compound 8, 7-Hydroxychromone] ?
Given back: 0.91

Asked: I am curious: what Log (CLint) (Actual) value has been reported for Oc1ccc(Cl)cc1 ?
Given back: 1.98

Asked: I am curious: what Log (CLint) (Actual) value has been reported for COc1ccccc1-c1oc2ccccc2c(=O)c1O [compound 72, 3-Hydroxy-2′-methoxyflavone] ?
Given back: 4.25

Asked: I am curious: what Log (CLint) (Actual) value has been reported for O=c1cc(-c2ccccc2O)oc2ccccc12 [compound 28, 2′-Hydroxyflavone] ?
Given back: 2.27

Asked: I am curious: what Log (CLint) (Actual) value has been reported for O=c1cc(-c2ccccc2)oc2cc(O)ccc12 [compound 49, 7-Hydroxyflavone] ?
Given back: 3.13

Asked: I am curious: what Log (CLint) (Actual) value has been reported for COc1cc(O)c2c(=O)c(-c3ccc(O)cc3)coc2c1 ?
Given back: 2.25

Asked: I am curious: what Log (CLint) (Actual) value has been reported for CCc1ccc(O)cc1 ?
Given back: 1.87

----------
study.system: UGT1A9 (Homo sapiens, UniProt O60656)
Sequence (O60656 26-530): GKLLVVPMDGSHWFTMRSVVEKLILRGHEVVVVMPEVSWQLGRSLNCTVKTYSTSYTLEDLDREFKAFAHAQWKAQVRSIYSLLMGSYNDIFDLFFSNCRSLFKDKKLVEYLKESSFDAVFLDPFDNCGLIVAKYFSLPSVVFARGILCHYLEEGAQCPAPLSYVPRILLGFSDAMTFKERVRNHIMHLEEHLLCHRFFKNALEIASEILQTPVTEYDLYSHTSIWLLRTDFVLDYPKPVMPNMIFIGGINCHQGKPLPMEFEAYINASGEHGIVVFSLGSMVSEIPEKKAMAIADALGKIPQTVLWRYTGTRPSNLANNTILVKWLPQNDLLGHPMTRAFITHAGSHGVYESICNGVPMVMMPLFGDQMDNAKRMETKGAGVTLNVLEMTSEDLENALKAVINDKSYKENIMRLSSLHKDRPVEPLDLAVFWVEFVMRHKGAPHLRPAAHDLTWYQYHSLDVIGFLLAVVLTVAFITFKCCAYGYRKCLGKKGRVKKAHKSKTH
procedure.text: Kinetic profiling of glucuronidation by expressed human UGT1A9
condition.context: log of experimental CLint (μl/mg/min)
Criterion: Log (CLint) (Actual) meeting or surpassing 3. Met: Criterion met. Not met: Criterion not met.

Asked: Hi team, for O=c1cc(-c2cccc(O)c2)oc2cc(O)ccc12 [compound 43, 7,3′-Dihydroxyflavone] , is the recorded Log (CLint) (Actual) at or above 3?
Given back: Criterion not met

Asked: Hi team, for O=c1c(O)c(-c2ccccc2O)oc2cc(O)cc(O)c12 , is the recorded Log (CLint) (Actual) at or above 3?
Given back: Criterion not met

Asked: Hi team, for COc1cccc(-c2oc3ccccc3c(=O)c2O)c1OC [compound 71, 3-Hydroxy-2′,3′-dimethoxyflavone] , is the recorded Log (CLint) (Actual) at or above 3?
Given back: Criterion met

Asked: Hi team, for O=c1oc2cc(O)ccc2c(-c2ccccc2)c1-c1ccccc1 [compound 9, 3,4-Diphenyl-7-hydroxycoumarin] , is the recorded Log (CLint) (Actual) at or above 3?
Given back: Criterion not met

Asked: Hi team, for COc1cc(-c2oc3cc(O)cc(O)c3c(=O)c2O)cc(OC)c1O , is the recorded Log (CLint) (Actual) at or above 3?
Given back: Criterion met

Asked: Hi team, for Cc1ccc2oc(-c3ccccc3)c(O)c(=O)c2c1 [compound 66, 3-Hydroxy-6-methylflavone] , is the recorded Log (CLint) (Actual) at or above 3?
Given back: Criterion met

Asked: Hi team, for CCCCOC(=O)c1ccc(O)cc1 [compound 129, Butyl-4-hydroxybenzoate] , is the recorded Log (CLint) (Actual) at or above 3?
Given back: Criterion not met

Asked: Hi team, for O=c1c(-c2ccc(O)cc2)coc2cc(O)cc(O)c12 , is the recorded Log (CLint) (Actual) at or above 3?
Given back: Criterion not met

Asked: Hi team, for COc1c(C)c2c(c(O)c1C/C=C(\C)CCC(=O)O)C(=O)OC2 [compound 142, Mycophenolic Acid, reference compound] , is the recorded Log (CLint) (Actual) at or above 3?
Given back: Criterion not met

Asked: Hi team, for O=c1cc(-c2ccc(O)c(O)c2)oc2cc(O)cc(O)c12 , is the recorded Log (CLint) (Actual) at or above 3?
Given back: Criterion met

Asked: Hi team, for Oc1ccc(C2CCCC2)cc1 , is the recorded Log (CLint) (Actual) at or above 3?
Given back: Criterion not met

Asked: Hi team, for O=c1c(O)c(-c2ccccc2O)oc2ccccc12 [compound 59, 3,2′-Dihydroxyflavone] , is the recorded Log (CLint) (Actual) at or above 3?
Given back: Criterion not met

Asked: Hi team, for O=C1OC[C@H](Cc2cccc(O)c2)[C@H]1Cc1cccc(O)c1 , is the recorded Log (CLint) (Actual) at or above 3?
Given back: Criterion not met

Asked: Hi team, for CC(=O)CC(c1ccccc1)c1c(O)c2cccc(O)c2oc1=O (stereo not drawn) [compound 13, 8-Hydroxywarfarin] , is the recorded Log (CLint) (Actual) at or above 3?
Given back: Criterion not met

Asked: Hi team, for Cc1ccc(C(=O)c2cc(O)c(O)c([N+](=O)[O-])c2)cc1 [compound 145, Tolcapone, reference compound] , is the recorded Log (CLint) (Actual) at or above 3?
Given back: Criterion not met

Asked: Hi team, for O=c1cc(-c2ccccc2)oc2ccc(O)cc12 [compound 38, 6-Hydroxyflavone] , is the recorded Log (CLint) (Actual) at or above 3?
Given back: Criterion not met

Asked: Hi team, for COc1cc2ccc(=O)oc2cc1O , is the recorded Log (CLint) (Actual) at or above 3?
Given back: Criterion not met

Asked: Hi team, for COc1ccc(-c2cc(=O)c3ccc(O)cc3o2)cc1 [compound 47, 7-Hydroxy-4′-methoxyflavone] , is the recorded Log (CLint) (Actual) at or above 3?
Given back: Criterion not met

Asked: Hi team, for COc1ccc(-c2oc3ccc(OC)cc3c(=O)c2O)cc1 [compound 77, 3-Hydroxy-6,4′-dimethoxyflavone] , is the recorded Log (CLint) (Actual) at or above 3?
Given back: Criterion met

Asked: Hi team, for COc1cccc2oc(-c3ccccc3)c(O)c(=O)c12 [compound 76, 3-Hydroxy-5-methoxyflavone] , is the recorded Log (CLint) (Actual) at or above 3?
Given back: Criterion met

Asked: Hi team, for O=c1c(O)c(-c2ccc(O)cc2)oc2cc(O)ccc12 , is the recorded Log (CLint) (Actual) at or above 3?
Given back: Criterion met

Asked: Hi team, for CCC(C)c1ccc(O)cc1 (stereo not drawn) , is the recorded Log (CLint) (Actual) at or above 3?
Given back: Criterion not met

Asked: Hi team, for O=c1c(O)c(-c2cc(O)c(O)c(O)c2)oc2cc(O)cc(O)c12 , is the recorded Log (CLint) (Actual) at or above 3?
Given back: Criterion not met

Asked: Hi team, for COc1cc(-c2oc3cc(O)ccc3c(=O)c2O)cc(OC)c1OC [67.a, 3,7-Dihydroxy-3′,4′,5′-trimethoxyflavone] , is the recorded Log (CLint) (Actual) at or above 3?
Given back: Criterion met

Asked: Hi team, for O=c1c(O)c(-c2ccccc2)oc2cccc(O)c12 [compound 61, 3,5-Dihydroxyflavone] , is the recorded Log (CLint) (Actual) at or above 3?
Given back: Criterion met

Asked: Hi team, for COc1cc(-c2oc3cc(O)ccc3c(=O)c2O)ccc1O , is the recorded Log (CLint) (Actual) at or above 3?
Given back: Criterion met

Asked: Hi team, for CC(=O)c1ccc(O)cc1 [compound 121, 4-Hydroxyacetophenone] , is the recorded Log (CLint) (Actual) at or above 3?
Given back: Criterion not met

Asked: Hi team, for O=c1c(O)c(-c2ccccc2)oc2ccccc12 [compound 81, 3-Hydroxyflavone] , is the recorded Log (CLint) (Actual) at or above 3?
Given back: Criterion met

Asked: Hi team, for O=C(c1ccc(OCCN2CCCCC2)cc1)c1c(-c2ccc(O)cc2)sc2cc(O)ccc12 [compound 22, Raloxifene, reference compound] , is the recorded Log (CLint) (Actual) at or above 3?
Given back: Criterion not met

Asked: Hi team, for Oc1ccc2c(c1)OC[C@H]1c3cc4c(cc3O[C@@H]21)OCO4 , is the recorded Log (CLint) (Actual) at or above 3?
Given back: Criterion not met

Asked: Hi team, for CCOc1ccc(O)cc1 , is the recorded Log (CLint) (Actual) at or above 3?
Given back: Criterion not met

Asked: Hi team, for O=c1cc(-c2ccccc2O)oc2cc(O)ccc12 [compound 42, 7,2′-Dihydroxyflavone] , is the recorded Log (CLint) (Actual) at or above 3?
Given back: Criterion not met

Asked: Hi team, for CCCOc1ccc(O)cc1 , is the recorded Log (CLint) (Actual) at or above 3?
Given back: Criterion not met
